Property: pIC50; scope: individual molecules
System tested: αvβ3 (Homo sapiens, UniProt P05106+P06756)
Sequence (P06756 31-889 limits assumed): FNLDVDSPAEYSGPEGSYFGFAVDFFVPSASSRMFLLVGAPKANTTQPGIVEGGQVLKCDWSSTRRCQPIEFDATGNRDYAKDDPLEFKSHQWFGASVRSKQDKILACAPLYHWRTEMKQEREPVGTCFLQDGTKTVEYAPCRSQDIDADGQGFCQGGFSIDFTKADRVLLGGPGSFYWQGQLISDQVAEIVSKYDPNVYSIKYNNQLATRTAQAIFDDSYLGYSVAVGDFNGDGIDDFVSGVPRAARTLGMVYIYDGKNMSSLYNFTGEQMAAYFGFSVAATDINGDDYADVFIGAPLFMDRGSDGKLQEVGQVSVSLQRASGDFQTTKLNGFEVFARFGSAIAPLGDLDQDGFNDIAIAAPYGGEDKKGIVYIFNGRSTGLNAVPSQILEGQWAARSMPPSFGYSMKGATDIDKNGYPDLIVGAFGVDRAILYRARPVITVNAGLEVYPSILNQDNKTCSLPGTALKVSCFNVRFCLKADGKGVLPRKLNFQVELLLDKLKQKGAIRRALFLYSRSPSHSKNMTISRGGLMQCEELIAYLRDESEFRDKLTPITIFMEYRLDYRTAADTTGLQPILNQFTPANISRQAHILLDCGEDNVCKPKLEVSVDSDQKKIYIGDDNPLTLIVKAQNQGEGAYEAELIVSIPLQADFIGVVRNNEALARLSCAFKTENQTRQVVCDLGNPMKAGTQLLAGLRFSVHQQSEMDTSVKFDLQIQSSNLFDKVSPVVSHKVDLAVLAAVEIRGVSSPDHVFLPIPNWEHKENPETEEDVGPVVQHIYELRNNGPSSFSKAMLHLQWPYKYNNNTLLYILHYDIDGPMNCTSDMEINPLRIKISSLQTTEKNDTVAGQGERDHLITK
Sequence (P06756 891-1048 limits assumed): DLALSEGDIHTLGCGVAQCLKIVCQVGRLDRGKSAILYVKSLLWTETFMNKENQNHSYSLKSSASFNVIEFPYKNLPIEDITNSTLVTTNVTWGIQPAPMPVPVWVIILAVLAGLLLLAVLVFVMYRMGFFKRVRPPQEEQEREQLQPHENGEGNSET
Sequence (P05106 27-788): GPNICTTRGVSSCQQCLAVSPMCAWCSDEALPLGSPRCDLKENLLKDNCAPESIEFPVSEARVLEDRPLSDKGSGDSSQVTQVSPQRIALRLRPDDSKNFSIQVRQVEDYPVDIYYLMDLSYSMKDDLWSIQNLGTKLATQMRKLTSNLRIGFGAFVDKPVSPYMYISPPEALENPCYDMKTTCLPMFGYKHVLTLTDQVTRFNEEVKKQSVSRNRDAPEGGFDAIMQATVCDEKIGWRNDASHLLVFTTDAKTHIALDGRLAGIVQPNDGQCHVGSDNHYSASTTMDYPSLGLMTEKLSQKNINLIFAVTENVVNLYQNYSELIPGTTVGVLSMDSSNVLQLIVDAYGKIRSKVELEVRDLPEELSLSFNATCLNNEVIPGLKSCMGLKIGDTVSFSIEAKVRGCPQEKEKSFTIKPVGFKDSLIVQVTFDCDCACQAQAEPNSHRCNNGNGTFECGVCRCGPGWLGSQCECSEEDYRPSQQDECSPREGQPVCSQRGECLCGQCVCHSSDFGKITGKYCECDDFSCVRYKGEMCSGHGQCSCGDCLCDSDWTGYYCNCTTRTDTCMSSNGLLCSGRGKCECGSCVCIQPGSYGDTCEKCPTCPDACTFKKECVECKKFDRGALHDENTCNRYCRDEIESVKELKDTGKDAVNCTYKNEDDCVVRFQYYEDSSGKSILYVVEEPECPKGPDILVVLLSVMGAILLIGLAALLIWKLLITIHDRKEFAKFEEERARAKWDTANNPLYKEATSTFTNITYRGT
Assay protocol: Solid-phase assay: biotinylated-fibrinogen binding to immobilized αvβ3
Set-up: placental αvβ3; from tissue; host or cells: placenta
Measurement conditions: Solid Phase Assay; biotinylated-fibrinogen 10 nM, 2 hours at 37° C
pIC50: −log10 of the molar value. Structures can show the parent of a compound that is named as a salt.
Recorded metric: pIC50

- Cc1cc(C)c(S(=O)(=O)N[C@@H](CNC(=O)c2ccc(/C=C/CNC(=N)N)s2)C(=O)O)c(C)c1: 9.30
- Cc1cc(C)c(S(=O)(=O)NC(CNC(=O)c2ccc(-c3cccc(NC(=N)N)c3)s2)C(=O)Nc2nccs2)c(C)c1 (centres unmarked) [Compound X-5, hydrochloride salt]: 6.44
- Cc1cc(C)c(S(=O)(=O)NC(CNC(=O)c2ccc(-c3cccc(NC(=N)N)c3)s2)C(N)=O)c(C)c1 (centres unmarked) [AC-1, hydrochloride salt]: 6.54
- Cc1cc(C)c(S(=O)(=O)N[C@@H](CNC(=O)c2ccc(-c3cccc(CNC(=N)N)c3)s2)C(=O)O)c(C)c1 [Compound F-2, trifluoroacetic acid salt]: 8.09
- Cc1cc(C)c(S(=O)(=O)NC(CNC(=O)c2ccc(-c3cccc(NC(=N)N)c3)s2)C(N)=O)c(C)c1 (centres unmarked) [AB-4, hydrochloride salt]: 7.44
- N=C(N)Nc1cccc(-c2ccc(C(=O)NC[C@H](NS(=O)(=O)c3ccccc3)C(=O)O)s2)c1 [Compound K-3, (trifluoroacetic acid salt)]: 8.82
- N=C(N)NCc1cccc(-c2ccc(C(=O)NC[C@H](NS(=O)(=O)c3ccccc3)C(=O)O)s2)c1 [Compound E-2, trifluoroacetic acid salt]: 8.57
- Cc1cc(C)c(S(=O)(=O)N[C@@H](CNC(=O)c2ccc(-c3cccc(NC(=N)N)c3)s2)C(=O)O)c(C)c1 [Compound M-3, (trifluoroacetic acid salt)]: 8.72
